tested on: SK-MEL-28 melanoma; assay: NCI tumour cell line growth inhibition, 48 h
assayEndpoint: TGI

Study these solved cases before continuing.
>  <molecule>
CC(C)(C)OC(=O)[N+](=N)C(=O)C1CCC(=O)N1C(=O)OCc1ccccc1 (stereo unspecified)

>  <assayedTarget>
SK-MEL-28 melanoma

>  <TGI>
> 100 µM

$$$$
>  <molecule>
CCOC(=N)CC(=O)Nc1ccc(Cl)cc1

>  <assayedTarget>
SK-MEL-28 melanoma

>  <TGI>
> 100 µM

$$$$
>  <molecule>
Oc1cccc2c1NC1=C(CCC/C1=C\c1ccccc1)C2

>  <assayedTarget>
SK-MEL-28 melanoma

>  <TGI>
> 100 µM

$$$$
>  <molecule>
O=S(=O)([O-])[O-].[OH3+].[OH3+].[OH3+].[Ru+2].c1ccccc1

>  <assayedTarget>
SK-MEL-28 melanoma

>  <TGI>
> 100 µM

$$$$

Task item: System SK-MEL-28 melanoma. Read-out TGI. Item `CC(=O)N(C)OC(=O)CC(=O)c1ccccc1` . Report value.
Reply: > 100 µM

Task item: System SK-MEL-28 melanoma. Read-out TGI. Item `C=C(O)c1ccccc1C#Cc1ccccc1C(=O)OC` . Report value.
Reply: > 10 µM
